FYI, the data here is from PubChem BioAssay (NCI).

System: SW-620 colon
Experiment: NCI-60 one-dose screen, 48 h (100 = growth as untreated, 0 = no growth, -100 = all killed)
Settings: 10 µM unless noted
About 83,000 compounds went through this panel and 20% of them were active in at least one assay; those are over-represented in the sample as a whole. Calls of active or inactive are those of the source. How the source made its calls: active means growth percent below 10; inactive means the rest.
Property Measured: growth

Below, each entry is followed by its recorded growth result.
> print(dat)
                                   compound  property.measured        data.value
1  COc1cc(C(C)c2ccc3c(ccn3C)c2)cc(OC)c1OC (configuration not stated)             growth    28% (inactive)
2  COc1cc(NCC(=O)Nc2cc(Nc3ccc(C)cc3)ncn2)c(Cl)c(OC)c1Cl             growth   103% (inactive)
3  NCCCn1c2c(c3cc(-c4ccn[nH]4)ccc3c1=O)C(=O)c1ccccc1-2             growth  24.6% (inactive)
4  COCCc1n(Cc2ccc3ccccc3c2)c2ccccc2[n+]1Cc1ccc2ccccc2c1             growth   -73.7% (active)
5  O=CN1N=C(c2ccc(Cl)cc2)CC1c1cccc(Nc2ccnc3cc(C(F)(F)F)ccc23)c1 (configuration not stated)             growth  89.8% (inactive)

Qu. Fill in the blank: the reported growth of COc1ccc2[nH]c(=O)c(/C=C/C(=O)/C=C/c3ccc(O)c(OC)c3)cc2c1 is ____.
Ans. -24.8% (active)

Qu. Fill in the blank: the reported growth of CC(=O)c1ccc(NC(=O)CSc2nnc(-c3cc(-c4ccc(C)cc4)nc4ccccc34)o2)cc1 is ____.
Ans. 28.4% (inactive)

Qu. Fill in the blank: the reported growth of N#Cc1ccc(Oc2ccc3ccc(=O)oc3c2)cc1 is ____.
Ans. 96.5% (inactive)

Qu. Fill in the blank: the reported growth of CCCCc1n(Cc2ccc3ccccc3n2)cc[n+]1Cc1ccc2ccccc2c1 is ____.
Ans. 11.2% (inactive)

Qu. Fill in the blank: the reported growth of Cc1ccc(-c2nc(C#N)c(S(=O)(=O)N(C)CCO)o2)cc1 is ____.
Ans. 35.1% (inactive)

Qu. Fill in the blank: the reported growth of CCOC(=O)NCCc1nc2c([nH]1)c(=O)n(C)c(=O)n2C is ____.
Ans. 103% (inactive)

Qu. Fill in the blank: the reported growth of COc1cc(C(=O)Nc2cc(O)c(C/C=C(\C)CCC=C(C)C)c(O)c2)cc2c1O[C@]1(C)CC[C@@H](O)C(C)(C)[C@H]1C2 is ____.
Ans. 4.02% (active)

---

Tested on: OVCAR-5 ovarian
Test: NCI-60 one-dose screen, 48 h (100 = growth as untreated, 0 = no growth, -100 = all killed)
Settings: 10 µM unless noted
Compounds without any hit were thinned out: in the full panel of roughly 83,000, 20% have a hit.
Listed here: items and their measured growth.
The response must be a number in % with no trailing unit.

Below, each entry is followed by its recorded growth result.
> print(dat)
                                   compound  data.value
1  COc1cc2c(Nc3ccc(NC(=O)Nc4ccc(Cl)c(C(F)(F)F)c4)c(Cl)c3)ncnc2cc1OCCCN1CCN(C)CC1          31
2  O=C(Nc1cccc(-c2cccc(F)c2)c1)C1CCN(Cc2cccc3cccnc23)CC1        82.9
3  c1ccc(-c2cn3ccnc3c(-c3ccc4c(c3)ncn4C3CCCCC3)n2)cc1         103
4  CN1CC=C(c2cc(NC(=O)Nc3ccc(Oc4ccnc(NC(=O)C5CC5)c4)c(F)c3)cc(C(F)(F)F)c2)CC1         7.5
5  N#Cc1c(-c2ccc(F)cc2)nc(N=Nc2c(O)[nH]c3ccc(Cl)cc23)nc1N1CCOCC1        84.5
6  COc1ccc2cc(/C=C3\N=C(c4cc(OC)c(OC)c(OC)c4)OC3=O)c(OC)nc2c1         108
7  CCCCN(CCCC)CC(CN(CC)CC)OC(=O)Nc1ccccc1 (configuration not stated)        76.7
8  N#Cc1ccc(N2Cc3cc(Cl)ccc3OC3=C2C(=O)N(Cc2ccc(F)cc2)C3=O)cc1       -1.59

Query compound follows.
Qu. Fill in the blank: the reported growth of Cc1c(Cl)cccc1NC(=O)c1sc2nc3c(cc2c1N)CCCCC3 is ____.
Ans. 58.3
